Provenance of the data: paper PMC3283998

system_name: T1, Bub1(1–150) (human, UniProt O43683 1-150)
T1 sequence (looked up): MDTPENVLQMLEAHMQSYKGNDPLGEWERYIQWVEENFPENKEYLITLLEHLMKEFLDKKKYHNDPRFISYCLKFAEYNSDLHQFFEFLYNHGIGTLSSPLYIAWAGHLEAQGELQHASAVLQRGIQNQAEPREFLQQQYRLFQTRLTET
procedure_details: fluorescence polarisation
pKd: −log10 of the molar value. Where no end group is shown, it is not given here.
quantity: pKd

Consider STKIDTTSFLANLKLHT (peptide, UniProt Q8NG31-2 174-190, looked up, also: fluorescein (5-FAM) label, position not given here) [Fluorescein (5-FAM)-labeled Knl1(174–190) peptide] . Its measured pKd is ~4.46
